- assay-system: T1, human CD4 on the surface of SKW3 cells or human PBMCs (human, UniProt P01730 26-458)
- T1 construct: whole, on cells; SKW3 CD4 knockout cells served as the negative cell line; also called hCD4; SKW3 WT
- test-name: FACS confirmation, supernatant on SKW3 WT cells, anti-mouse Fc A647; background gMFI 3300
Record form. Attribute: SKW3 WT anti-mFc 647, gMFI. Fill in for each entry.
One number for each entry, in gMFI.

# annotated cases, reported SKW3 WT anti-mFc 647, gMFI shown
1) 75110_12H17A (antibody, V domains shown, Tested here as non-clonal hybridoma supernatant from AlivaMab Mouse Kappa mice (detected with anti-mouse Fc and anti-human kappa)) VH: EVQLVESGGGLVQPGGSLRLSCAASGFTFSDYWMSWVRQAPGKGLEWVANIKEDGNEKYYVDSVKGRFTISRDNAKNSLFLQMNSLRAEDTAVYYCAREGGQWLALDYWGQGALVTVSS VL: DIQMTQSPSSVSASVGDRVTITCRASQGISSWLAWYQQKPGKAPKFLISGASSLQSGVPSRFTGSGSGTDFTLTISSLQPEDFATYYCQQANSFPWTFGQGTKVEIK ... 18000
2) 75110_12H19A (antibody, V domains shown, Tested here as non-clonal hybridoma supernatant from AlivaMab Mouse Kappa mice (detected with anti-mouse Fc and anti-human kappa)) VH: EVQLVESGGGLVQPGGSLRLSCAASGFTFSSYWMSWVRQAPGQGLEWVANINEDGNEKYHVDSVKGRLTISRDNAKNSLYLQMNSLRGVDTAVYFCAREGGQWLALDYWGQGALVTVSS VL: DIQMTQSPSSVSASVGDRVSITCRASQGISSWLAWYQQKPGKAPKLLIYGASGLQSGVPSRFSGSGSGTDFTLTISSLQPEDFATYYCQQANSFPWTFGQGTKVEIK ... 22800

// each binder listed below needs its SKW3 WT anti-mFc 647, gMFI
1. 75110_04B08A (antibody, V domains shown, Tested here as non-clonal hybridoma supernatant from AlivaMab Mouse Kappa mice (detected with anti-mouse Fc and anti-human kappa)) VH: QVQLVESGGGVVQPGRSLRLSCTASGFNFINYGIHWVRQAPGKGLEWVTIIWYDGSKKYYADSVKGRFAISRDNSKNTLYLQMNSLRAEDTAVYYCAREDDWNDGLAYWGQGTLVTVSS VL: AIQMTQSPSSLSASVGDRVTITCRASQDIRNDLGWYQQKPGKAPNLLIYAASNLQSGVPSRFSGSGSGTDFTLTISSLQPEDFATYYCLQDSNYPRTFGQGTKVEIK
2. 75110_05B13A (antibody, V domains shown, Tested here as non-clonal hybridoma supernatant from AlivaMab Mouse Kappa mice (detected with anti-mouse Fc and anti-human kappa)) VH: QVLLEQWGAGLLKPSETLSLTCAVYGGSFSGYYWTWIRQPPGKGLEWIGEINHRGSTNYNPSLKSRVTISIDTSKNQFSLKVKSVTAADTAMYYCTRPDSNWFDPWGQGTLVTVSS VL: DIQMTQSPSSVSASVGDRVTITCRASQDISNWLAWYQQKPGKAPKLLIFAASSLQSGVPSRFSGSGSGTDFTLTISSLQPEDFATYYCQQANSFPLTFGGGTKVEIK
3. 75110_03L12A (antibody, V domains shown, Tested here as non-clonal hybridoma supernatant from AlivaMab Mouse Kappa mice (detected with anti-mouse Fc and anti-human kappa)) VH: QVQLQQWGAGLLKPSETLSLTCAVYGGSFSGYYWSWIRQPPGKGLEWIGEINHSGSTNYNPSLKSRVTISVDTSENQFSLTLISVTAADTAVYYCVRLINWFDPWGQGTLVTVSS VL: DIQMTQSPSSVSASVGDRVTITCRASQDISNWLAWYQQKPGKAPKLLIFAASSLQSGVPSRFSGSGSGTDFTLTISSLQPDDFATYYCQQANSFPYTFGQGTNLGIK
4. 75110_11D03A (antibody, V domains shown, Tested here as non-clonal hybridoma supernatant from AlivaMab Mouse Kappa mice (detected with anti-mouse Fc and anti-human kappa)) VH: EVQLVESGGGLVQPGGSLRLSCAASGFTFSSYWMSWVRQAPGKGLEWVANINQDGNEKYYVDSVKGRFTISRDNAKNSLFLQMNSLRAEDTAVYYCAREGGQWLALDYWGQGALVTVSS VL: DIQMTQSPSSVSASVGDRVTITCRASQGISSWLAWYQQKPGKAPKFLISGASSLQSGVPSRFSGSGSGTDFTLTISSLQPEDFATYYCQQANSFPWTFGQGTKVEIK
5. 75110_04K10A (antibody, V domains shown, Tested here as non-clonal hybridoma supernatant from AlivaMab Mouse Kappa mice (detected with anti-mouse Fc and anti-human kappa)) VH: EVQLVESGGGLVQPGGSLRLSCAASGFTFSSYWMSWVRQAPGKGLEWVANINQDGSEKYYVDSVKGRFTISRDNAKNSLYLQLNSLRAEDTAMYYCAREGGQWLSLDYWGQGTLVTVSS VL: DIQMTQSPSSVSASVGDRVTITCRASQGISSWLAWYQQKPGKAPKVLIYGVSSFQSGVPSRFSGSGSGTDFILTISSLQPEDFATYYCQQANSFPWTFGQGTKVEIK

Result block:
1. 22600
2. 26000
3. 27300
4. 21100
5. 36700

Source: patent US20220112288A1
